target: -L1 (recombinant, BLI) (human, UniProt Q9H0R8 1-117)
Sequence (Q9H0R8 whole entry): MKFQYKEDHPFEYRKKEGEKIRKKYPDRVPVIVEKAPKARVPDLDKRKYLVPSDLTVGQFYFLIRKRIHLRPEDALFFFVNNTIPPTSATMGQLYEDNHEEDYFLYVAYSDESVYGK
protocolDetails: BLI
Ends that are not written are not given here.
quantityKind: pKd
pKd here: minus log base 10 of the concentration, concentration in moles per litre.

Give the measured pKd of TDYRPPDDAVFDIITDEELCQIQE [FYCO1 WT LIR peptide] . 6.05

Item NISQKSDEEDFDIIEDLPLKLTIY (also: biotin, position not given here) [PCM1 FDII LIR peptide (BLI)] has what recorded pKd? 6.04

Item NISQKSDEEDFVKVTDLPLKLTIY (also: biotin, position not given here) [PCM1 E1959T LIR peptide (BLI)] has what recorded pKd? 5.54

Quick check: pKd of NISQKSDEEDFVIVEDLPLKLTIY (also: biotin, position not given here) [PCM1 K1957I LIR peptide (BLI)] ? 6.89
